EXPERIMENTAL SYSTEM: T1, human IGF-1R(1-903)-Fc (human, UniProt P08069 31-933)
T1 construct: also called hIGF-1R-Fc; SDWT; not shown: human IgG1 Fc, C-terminal tag
T1 sequence (P08069 31-933): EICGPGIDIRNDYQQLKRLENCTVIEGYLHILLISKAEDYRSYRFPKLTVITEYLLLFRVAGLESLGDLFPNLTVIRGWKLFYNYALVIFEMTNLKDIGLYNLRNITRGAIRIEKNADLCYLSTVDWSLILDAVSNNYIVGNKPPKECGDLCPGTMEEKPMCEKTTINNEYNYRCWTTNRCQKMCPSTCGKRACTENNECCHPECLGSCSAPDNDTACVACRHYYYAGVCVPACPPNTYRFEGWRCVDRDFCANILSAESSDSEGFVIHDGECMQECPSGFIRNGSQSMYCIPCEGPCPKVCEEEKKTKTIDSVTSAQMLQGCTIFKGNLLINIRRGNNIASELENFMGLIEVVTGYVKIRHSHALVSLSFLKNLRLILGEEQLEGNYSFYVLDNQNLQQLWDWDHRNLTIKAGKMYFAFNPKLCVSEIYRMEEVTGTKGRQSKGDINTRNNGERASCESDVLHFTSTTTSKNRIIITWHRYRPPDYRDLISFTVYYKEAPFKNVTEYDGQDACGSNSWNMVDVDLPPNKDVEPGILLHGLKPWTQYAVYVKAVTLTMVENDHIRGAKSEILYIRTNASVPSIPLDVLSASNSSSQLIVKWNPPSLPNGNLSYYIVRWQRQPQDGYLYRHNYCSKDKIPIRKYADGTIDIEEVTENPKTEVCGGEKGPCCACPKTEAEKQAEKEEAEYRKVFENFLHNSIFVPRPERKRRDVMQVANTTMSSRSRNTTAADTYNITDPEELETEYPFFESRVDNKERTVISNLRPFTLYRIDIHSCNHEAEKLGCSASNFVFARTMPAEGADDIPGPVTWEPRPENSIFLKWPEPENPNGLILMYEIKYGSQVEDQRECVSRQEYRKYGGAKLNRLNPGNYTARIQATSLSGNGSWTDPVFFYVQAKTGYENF
ASSAY NOTES: biolayer interferometry (Octet), IGF-1R Fc on Protein A sensors, scFv culture supernatant
Parameters: unit not given here
Text: Individual transformed colonies were picked into deep-well 96 well dishes and processed for screening as described above. […] For off-rate analyses IGF-1R Fc was immobilized onto the surface of Protein A biosensors. […] ScFvs were allowed to bind to immobilized IGF-1R Fc for 300-seconds. Off-rate was subsequently assayed for 600 seconds.
Please respond with reported Kd (1/sec), off-rate as tabulated (XWU092 = 1.00) for every item in the list.

Lookup: Look up Kd (1/sec), off-rate as tabulated (XWU092 = 1.00) of MJF024, C06 (VL/GS3/VH) scFv with VL V15A (scFv, Kabat positions) scFv: DIQMTQSPLSLSASAGDRVTITCQASRDIRNYLNWYQQKPGKAPKLLIYDASSLQTGVPSRFGGSGSGTDFSFTIGSLQPEDIATYYCQQFDSLPHTFGQGTKLEIKGGGGSGGGGSGGGGSEVQLLESGGGLVQPGGSLRLSCAASGFTFSIYRMQWVRQAPGKGLEWVSGISPSGGTTWYADSVKGRFTISRDNSKNTLYLQMNSLRAEDTAVYYCARWSGGSGYAFDIWGQGTMVTVSSDDDKSFLEQKLISEEDLNSAVDHHHHHH and report it.
Found: 0.89

Lookup: Please supply the value of reported Kd (1/sec), off-rate as tabulated (XWU092 = 1.00) for the item MJF038, C06 (VL/GS3/VH) scFv with VL G63S, S72N (scFv, Kabat positions) scFv: DIQMTQSPLSLSASVGDRVTITCQASRDIRNYLNWYQQKPGKAPKLLIYDASSLQTGVPSRFSGSGSGTDFNFTIGSLQPEDIATYYCQQFDSLPHTFGQGTKLEIKGGGGSGGGGSGGGGSEVQLLESGGGLVQPGGSLRLSCAASGFTFSIYRMQWVRQAPGKGLEWVSGISPSGGTTWYADSVKGRFTISRDNSKNTLYLQMNSLRAEDTAVYYCARWSGGSGYAFDIWGQGTMVTVSSDDDKSFLEQKLISEEDLNSAVDHHHHHH
Found: 0.76

// data source = patent US20090130105A1
